Tested on: SNB-19
Assay procedure: NCI tumour cell line growth inhibition, 48 h
Active and inactive are the calls of the source. Cut-off read from the data, not from the text of the source: active = GI50 up to about 1.1 µM and inactive = higher. Where a SMILES comes first, the peptide text is derived from it. The star is where a group is joined. Boc = CC(C)(C)OC(=O)*
Outcome codes: 1 (active), -1 (inactive)

• COc1ccc2c(c1OC)C(=O)O[C@@H]2[C@H]1c2c(cc3c(c2OC)OCO3)CCN1C = -1
• Cc1c(O)c(OC2OC(CO)C(O)C(O)C2O)cc2c1CC[C@@H]1C2(C)C(=O)C[C@]2(C)[C@@H]([C@@](C)(O)C(O)CCC(C)(C)O)[C@H](O)C[C@@]12C (some centres undefined) = -1
• CCCCNC(=O)NNC(=O)c1cc(/C=C/c2cccc([N+](=O)[O-])c2)ncn1 = -1
• Cc1ccc(N2C(=O)/C(=C3\SC(C(N)=O)=C(N)N3c3ccccc3)SC2=S)cc1 = -1
• Clc1cc(Cc2cc(Cl)c(Cl)c3c2OCOC3)c2c(c1Cl)COCO2 = -1
• Cc1cc(=O)oc2c(CN3CCCCC3)c(O)ccc12 = -1
• CC(CO)C1C[C@H](O)[C@@]2(C)CC(=O)C=C(CO)[C@@H]2C1 (some centres undefined) = -1
• CC1(O)CCC2(C)C(=O)C1(C)CCC21OCCO1 (centres undefined) = -1
• Cc1cccc(-n2c(C)nc3ccc(NC(=S)Nc4ccccc4)cc3c2=O)c1 = -1
• COc1ccc(-c2cc(-c3cc(C)ccc3O)nc(O)n2)cc1 = -1
• COc1ccc(OC)c([N+](=O)[O-])c1-c1nc2sc(Cl)cn2c1/C=N/N=C(N)N = -1
• c1cnc2c(c1)ccc1cccnc12 = -1
• O=C1NC(=O)/C(=C/c2ccc(S(=O)(=O)N/N=C/c3ccc(Cl)cc3)cc2)N1 = -1
• CC(=O)[C@@H](C)C(=O)N1C(=O)OC[C@@]12[C@@H]1CC[C@@H](C1)C2(C)C = -1
• CC(C)C(=O)/C=C/c1ccc(Cl)cc1 = -1
• COc1ccc(-n2c(C)nc3ccc(NC(=S)Nc4ccccc4)cc3c2=O)cc1 = -1
• NC(C/C=C/P(=O)(O)O)C(=O)O (centres undefined) = -1
• CCOC(=O)C1=CC(C)(C(=O)OCC)Nc2c(nc(SC)[nH]c2=O)N1 (centres undefined) = -1
• CC1=[N+](C)CCCN1C = -1
• c1cc(-c2ccc(-c3ccc(-c4ccc(-c5cccc6nsnc56)[nH]4)c4nsnc34)[nH]2)c2nsnc2c1 = -1
• Fc1ccc2c(c1)nc1n2C(c2c(F)cccc2F)SC1 (centres undefined) = -1
• COS(=O)(=O)OCCC(NC(=O)OCc1ccccc1)C(=O)OCc1ccccc1 (centres undefined) = -1
• CC(C)(C)OC(=O)NC(Cc1ccccc1)C(=O)N1CCCC1C(N)=O (stereo not drawn) (Boc-Phe-Pro-NH2; configuration not given here) = -1
• CS(=O)(=O)c1nc(-c2cc3c(c(S(C)(=O)=O)n2)CCCC3)cc2c1CCCC2 = -1
• Cc1cc(N(CCC#N)CCC#N)ccc1C(/N=N\c1ccc([N+](=O)[O-])cc1)=N\NC(=O)c1cc(Cl)ccc1O = -1
• O=[N+]([O-])c1ccc(C[P+]2(c3ccccc3)CCCCC2)cc1.[O-][Cl+3]([O-])([O-])[O-] = -1
• CCC1c2[nH]c3ccccc3c2C[C@H]2C(=O)NC(Cc3c[nH]c4ccccc34)C(=O)N12 (some centres undefined) = -1
• CO[C@@H]1C[C@H]2[C@@H]3CC[C@H]([C@@H](C)CO)[C@@]3(C)CC[C@@H]2[C@@]2(C)CC[C@H]3C[C@]312 = -1
• CCCCNC(=O)OCCN=c1c2ccccc2ccc2ccccc12 = -1
• CCOC(=O)Cc1c(C)c2cc(C(=O)c3ccccc3)c(O)cc2oc1=O = -1
• COc1ccc(-c2c(C#N)c(N)n(C3OC(CO)C(O)C(O)C3O)c(=S)c2C#N)cc1 (centres undefined) = -1
• O=C(Nc1nc2ccccc2n1Cc1ccc(Cl)cc1)NC12CC3CC(CC(C3)C1)C2 = -1
• CC(C)=C[C@H]1CCC2(OCCO2)[C@]1(C)CO = -1
• CCCCCCCC(CC(=O)NC(CO)C(=O)NC(CO)CC(C)C)OC(=O)CC(CCCCCCC)OC(=O)CC(CCCCCCC)OC1OC(C)C(O)C(OC2OC(C)C(O)C(O)C2O)C1O (centres undefined) = -1
• Oc1nc(S)nc2c1CN(CCCN1CCOCC1)CN2 = -1
• N#C/C(=C(/S)Nc1ccccc1)c1nc2ccccc2[nH]1 = -1
• CCCCS/C(=C(/C#N)C(N)=O)c1cc2c([nH]1)CCCC2 = -1
• CC1=NN=C(N)NC1=CC(Sc1ccc(Cl)cc1)c1c(O)ccc2ccccc12 (centres undefined) = -1
• COc1cccc(-c2cc(=O)c3ccc(C)nc3[nH]2)c1 = 1

====

Tested on: HT-29
Assay procedure: NCI tumour cell line growth inhibition, 48 h
The source made the active and inactive calls. Cut-off read from the data, not from the text of the source: active = GI50 up to about 1.1 µM and inactive = higher.
Reported GI50 is given for each of the following compounds.
Measured quantity: GI50

- NC1=NN(c2ccccc2)C(=O)C1/C(=N\NC(=O)c1cc2ccccc2cc1O)C(=O)Nc1cccc(C(F)(F)F)c1 (stereo not given): 41 µM (inactive)
- Clc1cc(Cc2cc(Cl)c(Cl)c3c2OCOC3)c2c(c1Cl)COCO2: > 100 µM (inactive)
- COc1cc(/C=C\c2nnc(/C=C\c3ccc(O)c(OC)c3)s2)ccc1O: 7.31 µM (inactive)
- COc1ccc(/C(=N\NC(=O)C(=O)NN)C(c2ccc(OC)cc2)C2(O)C(=O)Nc3ccccc32)cc1 (stereo not given): 14.5 µM (inactive)
- COc1ccc(/C=C2\N=C(SC)N(CN3CCCCC3)C2=O)cc1: > 100 µM (inactive)
- Nc1cccc(S(=O)(=O)NCC(=O)O)c1: > 100 µM (inactive)
- CCOC(=O)C(NC(=O)C(CCCCNP(=O)(OCC)OCC)NC(=O)C(C)NC(C)=O)C(C)C (stereo not given): > 100 µM (inactive)
- C=CC[C@]12C=C(OC)[C@@H](O)[C@](OC)(C(c3cc(OC)c4c(c3)OCO4)[C@H]1C)[C@H]2OC(C)=O (stereo not given in full): > 100 µM (inactive)
- Cc1c2cc[n+](C)cc2c(C)c2c1[nH]c1ccc(OC(C)C)cc12: 4.25 µM (inactive)
- COc1cc(Nc2nc3cc(N)cc(N)c3nc2-c2ccccc2)cc(OC)c1OC: 16.6 µM (inactive)
- Cc1ccc(NC(=O)CC/C(CC(=O)c2ccc(Cl)cc2)=N\NC(=O)C(=O)NN)cc1C: > 100 µM (inactive)
- CS(=O)(=O)c1nc(-c2cc3c(c(S(C)(=O)=O)n2)CCCC3)cc2c1CCCC2: > 100 µM (inactive)
- CS(=O)(=O)Nc1ccc(Nc2c3ccccc3nc3ccccc23)cc1: 4.4 µM (inactive)
- O=C(NC1CCN(Cc2ccccc2)CC1)c1cccc(I)c1: 19.5 µM (inactive)
- CCN(CC)CCn1c2c3ccccc3ccc2c2oc(=O)c3ccccc3c21: > 100 µM (inactive)
- COc1ccc(-c2cc(O)c3ccc(C)nc3n2)cc1: 81.5 µM (inactive)
- Cc1cc2c3c(coc3c1-c1c(C)cc3c4c(coc14)C(=O)C(O)=C3C(C)C)C(=O)C(O)=C2C(C)C: 3.94 µM (inactive)
- O=C1CSC(c2cccc(Oc3ccccc3)c2)N1c1cccc(Cl)c1Cl (stereo not given): 22.4 µM (inactive)
- CN(C)CCNC(=O)c1cnn(C)c1[N+](=O)[O-]: 33.4 µM (inactive)
- Cc1cc2nc3c(C(OC4OC(CO)C(O)C(O)C4O)C(O)CO)nn(-c4ccccc4)c3nc2cc1C (stereo not given): > 100 µM (inactive)

====

System: MDA-MB-435
Assay procedure: NCI tumour cell line growth inhibition, 48 h
Active and inactive are the calls of the source. Rule as the data show it: active = GI50 up to about 1.1 µM and inactive = higher.
Measured quantity: GI50

- Nc1nc(SCc2ccccc2Cl)cc(C(=O)O)n1: 73.1 µM (inactive)
- CC(=O)OCC1CCC(=C2C(=O)OC(C)(C)OC2=O)N1 (stereo not given): > 100 µM (inactive)
- COc1cc2c(cc1O)CC[n+]1cc3c(OC)c(OC)ccc3cc1-2: > 100 µM (inactive)
- COC(=O)c1ccc2c(c1)sc1nc(-c3ccc(OC)cc3)cn12: 42.8 µM (inactive)
- O=C(O)CN1CCN(CC(=O)N2CCN(C(=O)OCc3ccccc3)CC2)CCN(CC(=O)O)CCN(CC(=O)N2CCN(C(=O)OCc3ccccc3)CC2)CC1: > 100 µM (inactive)

====

System: HOP-62
Assay procedure: NCI tumour cell line growth inhibition, 48 h
Active and inactive are the calls of the source. No stated cut-off is given here; in the data, active = GI50 up to about 1.1 µM and inactive = higher.
Measured quantity: GI50

* COC(=O)C1CC(C=[N+](C)C)=C(SC)N1C(=O)OCc1ccccc1 (stereo not drawn) | > 100 µM (inactive)
* O=[N+]([O-])c1ccc(C[P+]2(c3ccccc3)CCCCC2)cc1.[O-][Cl+3]([O-])([O-])[O-] | > 100 µM (inactive)
* COC(=O)c1ccc2c(c1)sc1nc(-c3ccc(OC)cc3)cn12 | > 100 µM (inactive)
* CCOC1CC(C)N(C(=O)c2ccccc2)O1 (stereo not drawn) | > 100 µM (inactive)
* CSc1nc2c(c(N3CCOCC3)n1)C(O)n1c(nc3ccccc31)S2 (stereo not drawn) | 40.6 µM (inactive)
* CCn1c(-c2ccc(F)cc2)nc2c1C(=O)c1ccccc1C2=O | > 100 µM (inactive)
* Cc1cc(O)nc(CNC(=O)Cc2ccccc2)n1 | > 100 µM (inactive)
* CN1CCC(C(O)(c2ccccc2)c2ccc(Br)cc2)CC1 (stereo not drawn) | 24.8 µM (inactive)
* C=C1CCC2CC1C(C(=O)c1c[nH]c3ccccc13)=NC2(C)C (stereo not drawn) | > 100 µM (inactive)
* c1cc(-c2ccc(-c3ccc(-c4ccc(-c5cccc6nsnc56)[nH]4)c4nsnc34)[nH]2)c2nsnc2c1 | > 100 µM (inactive)
* CCc1c(O)c2c(c(O)c1C(C)=O)C(=O)c1c(cc(O)c(C(=O)O)c1C(=O)O)C2=O | > 100 µM (inactive)
* NCCCC(N)C(=O)O (stereo not drawn) | > 100 µM (inactive)
* O=C1NC(=O)/C(=C/c2ccc(S(=O)(=O)N/N=C/c3ccc(Cl)cc3)cc2)N1 | > 100 µM (inactive)
* Cc1cc(NS(=O)(=O)c2ccc(NC(NC(=O)OC(C)C)(C(F)(F)F)C(F)(F)F)cc2)nc(C)n1 | > 100 µM (inactive)
* Cc1cc(=O)oc2c(C)c(O)ccc12 | > 100 µM (inactive)
* Cn1ccnc1Sc1ccc(/C=N/c2ccc3nc(SCC(=O)NC4CCCCC4)sc3c2)cc1[N+](=O)[O-] | 28.4 µM (inactive)
* COc1cccc2c1C(=O)C1=C(C2=O)C(O)CC(C)(C)O1 (stereo not drawn) | > 100 µM (inactive)
* Cc1nc2ccccc2c(=O)n1Nc1ccc(C(=O)O)cc1 | > 100 µM (inactive)
